# GI50 per entry
# SUBJECT OF TEST: ABL T315I BAF3 cells (Homo sapiens, UniProt P00519, T315I, cells depend on it)
# Construct: ABL T315I BAF3; fused on or other part: P11274 (Breakpoint cluster region protein)
# TEST DESCRIPTION: 96-well XTT cell survival assay, BaF3 ABL T315I
# Format: cell-based
# ASSAY CONTEXT: 72 hours, read-out: CELL BIO ABL T315I BAF3 XTT (IC50)

// solved cases for GI50 follow
COc1ccccc1-c1n[nH]c2ncc(-c3cncc(C(O)C(=O)N(C)C)c3)c(Cl)c12 (centres unmarked): 100 to 1000 nM
COc1ccccc1-c1c[nH]c2ncc(-c3cncc(C(O)C(=O)N(C)C)c3)c(N)c12 (centres unmarked): 100 to 1000 nM
COc1ccccc1-c1c[nH]c2ncc(-c3ccc(N)c(C(=O)N(C)C)c3)c(Cl)c12: < 10 nM
CN(C)C(=O)c1nc(-c2cnc3[nH]cc(-c4ccccc4)c3c2Cl)cnc1N: 100 to 1000 nM

// below: GI50 requested for another molecule
(Q) Param item = OC(c1cccc(-c2cnc3[nH]cc(-c4ccccc4F)c3c2Cl)c1)c1ncco1 (centres unmarked) ; retrieve measured GI50.
(A) > 1000 nM
